Test system: Surinam grass
method.summary: Test B pre-/postemergence herbicide test
Assay type: in vivo, Urochloa decumbens
test.conditions: 125 g ai/ha; 0 = no effect, 100 = complete control; preemergence
quantity: Surinam Grass plant response rating (0 to 100 scale)

Some compounds with known Surinam Grass plant response rating (0 to 100 scale) results, for comparison:
[[record]]
compound = "CCOc1cccc(NC(=O)c2cn(C(C)(C)C)nc2C)c1"
assay_system = "Surinam grass"
result = 0

[[record]]
compound = "CC(=NO)c1cccc(NC(=O)c2cc(C(C)(C)C)n[nH]2)c1"
assay_system = "Surinam grass"
result = 0


Name the value of Surinam Grass plant response rating (0 to 100 scale) reported for `CCc1nc(C(C)(C)C)sc1C(=O)Nc1cccc(C(=O)N(C)CC)c1` when tested on Surinam grass. 40

Name the value of Surinam Grass plant response rating (0 to 100 scale) reported for `C=CCN(CC=C)C(=O)c1cncc(NC(=O)c2cc(C(C)(C)C)nn2CC)c1` when tested on Surinam grass. 0

Name the value of Surinam Grass plant response rating (0 to 100 scale) reported for `CCNC(=O)c1cc(NC(=O)c2cc(C(C)(C)C)nn2CC)ccn1` when tested on Surinam grass. 0

Name the value of Surinam Grass plant response rating (0 to 100 scale) reported for `CCNC(=O)c1ccc(F)c(NC(=O)c2sc(C(C)(C)C)nc2CC)c1` when tested on Surinam grass. 10

Name the value of Surinam Grass plant response rating (0 to 100 scale) reported for `CCNC(=O)c1ccc(F)c(NC(=O)c2cn(C(C)(C)C)nc2CC)c1` when tested on Surinam grass. 80

Name the value of Surinam Grass plant response rating (0 to 100 scale) reported for `CCNC(=O)c1cncc(NC(=O)c2cc(C(C)(C)C)nn2CC)c1` when tested on Surinam grass. 0

Name the value of Surinam Grass plant response rating (0 to 100 scale) reported for `CCNC(=O)c1ccc(F)c(NC(=O)c2cc(C(C)(C)C)nn2CC)n1` when tested on Surinam grass. 20

Name the value of Surinam Grass plant response rating (0 to 100 scale) reported for CCNC(=O)c1ccc(F)c(NC(=O)C2CC(C(C)(C)C)=NN2CC)c1 (racemic) when tested on Surinam grass. 50

Name the value of Surinam Grass plant response rating (0 to 100 scale) reported for `CCNC(=O)c1cccc(NC(=O)c2nn(C(C)(C)C)cc2C(F)(F)F)c1` when tested on Surinam grass. 0

* * *

Below, each entry is listed alongside its reported Plant response rating (0 = no effect, 100 = complete control), Surinam Grass.
Tested on: Surinam grass
method.summary: Test C pre-/postemergence herbicide test
Type: in vivo, Urochloa decumbens
test.conditions: 62 g ai/ha; preemergence
Answer with the value's number alone.

[[record]]
chemical_string = "C#CCNC(=O)c1cccc(NC(=O)c2cc(C(C)(C)C)nn2CC)n1"
assay_system = "Surinam grass"
recorded_number = 0

[[record]]
chemical_string = "CC(=O)c1cccc(NC(=O)c2cc(C(C)(C)C)nn2CCF)c1"
assay_system = "Surinam grass"
recorded_number = 30

[[record]]
chemical_string = "CCCCOc1cccc(NC(=O)c2cc(C(C)(C)C)nn2CC)c1"
assay_system = "Surinam grass"
recorded_number = 0


// below: Plant response rating (0 = no effect, 100 = complete control), Surinam Grass requested for another molecule
// fetch Plant response rating (0 = no effect, 100 = complete control), Surinam Grass given entry `C=Cn1nc(C(C)(C)C)cc1C(=O)Nc1cccc(C(=O)N(CC)CC)c1` 10

* * *

Tested on: smallflower umbrella sedge
method.summary: Test C flooded paddy test
Assay type: in vivo, Cyperus difformis
test.conditions: 125 g ai/ha, scale 0 to 100 (0 no effect, 100 complete control)
Below, each entry is listed alongside its reported Sedge, Umbrella plant response rating.
Answer with the value's number alone.

Some compounds with known Sedge, Umbrella plant response rating results, for comparison:
[[record]]
compound = "CCn1nc(C2(C)CC2)cc1C(=O)Nc1cc(C(=O)N2CC=CC2)ccc1F"
recorded_number = 90

[[record]]
compound = "CCOc1cccc(NC(=O)c2cc(C(C)(C)C)nn2CC)c1"
recorded_number = 80


// fetch Sedge, Umbrella plant response rating given entry CCN1N=C(C(C)(C)C)CC1C(=O)Nc1cc(C(=O)N2CC=CC2)ccc1F (racemic) 85

// fetch Sedge, Umbrella plant response rating given entry `CCc1nc(C(C)(C)C)sc1C(=O)Nc1cc(C(=O)N(C)C)ccc1F` 75

// fetch Sedge, Umbrella plant response rating given entry `CCc1nc(C(C)(C)C)sc1C(=O)Nc1cccc(C(=O)NCCF)c1` 55

// fetch Sedge, Umbrella plant response rating given entry `CCNC(=O)c1ccc(F)c(NC(=O)c2cc(C(C)(C)C)nn2CC)n1` 25

// fetch Sedge, Umbrella plant response rating given entry `Cc1nn(C(C)(C)C)nc1C(=O)Nc1cc(C(=O)N(C)C)ccc1F` 15

* * *

System: ducksalad
method.summary: Test B flooded paddy test
Assay type: in vivo, Heteranthera limosa
test.conditions: 1000 g ai/ha, scale 0 to 100 (0 no effect, 100 complete control)
quantity: Ducksalad plant response rating
Answer with the value's number alone.

Some compounds with known Ducksalad plant response rating results, for comparison:
[[record]]
compound = "C=CCN(CC=C)C(=O)c1cccc(NC(=O)c2nn(C(C)(C)C)nc2CC)c1"
quantity = "Ducksalad plant response rating"
recorded_number = 80

[[record]]
compound = "CCNC(=O)c1ccnc(NC(=O)c2nn(C(C)(C)C)cc2CC)c1"
quantity = "Ducksalad plant response rating"
recorded_number = 50

[[record]]
compound = "CCNC(=O)c1cc(NC(=O)c2cc(C(C)(C)C)nn2CC)ccn1"
quantity = "Ducksalad plant response rating"
recorded_number = 50


Name the value of Ducksalad plant response rating reported for `CCc1nn(C(C)C)nc1C(=O)Nc1cccc(C(=O)N(C)CC)c1` when tested on ducksalad. 90

Name the value of Ducksalad plant response rating reported for `CCn1nc(C(C)(C)C)cc1C(=O)Nc1cccc(C(=O)N(C)OC)n1` when tested on ducksalad. 50

Name the value of Ducksalad plant response rating reported for `CCN(C)C(=O)c1cccc(NC(=O)c2nn(C(C)C)nc2C)c1` when tested on ducksalad. 80

Name the value of Ducksalad plant response rating reported for `CCNC(=O)c1ccc(F)c(NC(=O)c2cc(C(C)(C)C)nn2CC)n1` when tested on ducksalad. 80

Name the value of Ducksalad plant response rating reported for `C=CCNC(=O)c1ccc(F)c(NC(=O)c2cc(C(C)(C)C)nn2CC)c1` when tested on ducksalad. 80

Name the value of Ducksalad plant response rating reported for `Cc1nn(C(C)(C)C)nc1C(=O)Nc1cc(C(=O)N(C)C)ccc1F` when tested on ducksalad. 90

* * *

Tested on: canarygrass
method.summary: Test C postemergence herbicide test
Assay type: in vivo, Phalaris minor
test.conditions: postemergence, 125 g ai/ha; scale 0 to 100
Below, each entry is listed alongside its reported Plant response rating, Canarygrass.
Answer with the value's number alone.

[[record]]
compound = "CCn1nc(C(C)(C)C)cc1C(=O)Nc1cc(OC(F)(F)F)ccc1F"
assay_system = "canarygrass"
recorded_number = 25

[[record]]
compound = "CCn1nc(C(C)(C)C)cc1C(=O)Nc1cccc(C(=O)NCC2CC2)c1"
assay_system = "canarygrass"
recorded_number = 30

[[record]]
compound = "CCNC(=O)c1cccc(NC(=O)c2cc(C(C)(C)C)nn2CC)n1"
assay_system = "canarygrass"
recorded_number = 40

[[record]]
compound = "CCN1N=C(C(C)(C)C)CC1C(=O)Nc1cc(C(=O)N(C)C)ccc1F (stereo not drawn)"
assay_system = "canarygrass"
recorded_number = 30

[[record]]
compound = "CCOC(=O)c1cccc(NC(=O)c2cc(C3(C)CC3)nn2CC)c1"
assay_system = "canarygrass"
recorded_number = 35


// fetch Plant response rating, Canarygrass given entry `C=CCN(CC=C)C(=O)c1cccc(NC(=O)c2nn(C(C)(C)C)nc2CC)c1` 50

* * *

System: wheat
method.summary: Test B postemergence herbicide test
Format: in vivo, Triticum aestivum
Design: key: 0 = no effect, 100 = complete control
test.conditions: postemergence, 125 g ai/ha; visual rating, scale 0 (no effect) to 100 (complete control)
quantity: Wheat plant response rating
Answer with the value's number alone.

Some compounds with known Wheat plant response rating results, for comparison:
[[record]]
compound = "CCn1nc(C(C)(C)C)cc1C(=O)Nc1cccc(C(=O)NCC2CC2)c1 [Compound 62]"
recorded_number = 0

[[record]]
compound = "CCNC(=O)c1ccc(F)c(NC(=O)c2sc(C(C)(C)C)nc2CC)c1 [Compound 226]"
recorded_number = 20

[[record]]
compound = "C=CCn1nc(C(C)(C)C)cc1C(=O)Nc1cccc(C(=O)NCC)c1 [Compound 56]"
recorded_number = 10

[[record]]
compound = "CCn1nc(C(C)(C)C)cc1C(=O)Nc1cccc(C(=O)OCCF)c1C [Compound 91]"
recorded_number = 0


// fetch Wheat plant response rating given entry CCNC(=O)c1ccc(F)c(NC(=O)c2cc(C(C)(C)C)nn2CC)n1 [Compound 278] 30

// fetch Wheat plant response rating given entry CC(=NO)c1cccc(NC(=O)c2cc(C(C)(C)C)nn2C)c1 [Compound 107] 0

// fetch Wheat plant response rating given entry CCc1nc(C(C)(C)C)sc1C(=O)Nc1cc(C(=O)N(C)C)ccc1F [Compound 225] 10

// fetch Wheat plant response rating given entry CCOC(=O)c1ccnc(NC(=O)c2cn(C(C)(C)C)nc2CC)c1 [Compound 238] 0
